Documented EC50 across a set of molecules
System: Synechocystis sp. PCC 6803
Test: Growth inhibition of Synechocystis sp. PCC6803 incubated for 7 days
Format: functional, organism-based
Settings: Synechocystis sp. PCC 6803, 168 h
Unit nM implied. Number only.

{"Molecule": "Cc1ncc(Cn2nnc(COC(=O)c3ccc(Cl)cc3)c2I)c(N)n1", "Readout Kind": "EC50", "U": "nM", "Assay Result": 900}
{"Molecule": "Cc1ncc(Cn2cc(COC(=O)c3cccc(Cl)c3)nn2)c(N)n1", "Readout Kind": "EC50", "U": "nM", "Assay Result": 1810}
{"Molecule": "Cc1ncc(Cn2nnc(COC(=O)c3cccc(Cl)c3)c2I)c(N)n1", "Readout Kind": "EC50", "U": "nM", "Assay Result": 1160}
{"Molecule": "Cc1ncc(Cn2cc(COC(=O)c3ccc(Cl)cc3)nn2)c(N)n1", "Readout Kind": "EC50", "U": "nM", "Assay Result": 2250}

-- ask Find EC50 (Synechocystis sp. PCC 6803) for the entry Cc1ncc(Cn2cc(COC(=O)c3ccc([N+](=O)[O-])cc3)nn2)c(N)n1
-- reply 1640

-- ask Find EC50 (Synechocystis sp. PCC 6803) for the entry Cc1ncc(Cn2cc(COC(=O)c3ccccc3)nn2)c(N)n1
-- reply 1660

-- ask Find EC50 (Synechocystis sp. PCC 6803) for the entry Cc1ncc(Cn2cc(COC(=O)c3ccccc3Cl)nn2)c(N)n1
-- reply 2440

-- ask Find EC50 (Synechocystis sp. PCC 6803) for the entry Cc1ccc(C(=O)OCc2nnn(Cc3cnc(C)nc3N)c2I)cc1
-- reply 1140

-- ask Find EC50 (Synechocystis sp. PCC 6803) for the entry Cc1ncc(Cn2nnc(COC(=O)c3ccccc3)c2I)c(N)n1
-- reply 1440

-- ask Find EC50 (Synechocystis sp. PCC 6803) for the entry Cc1ncc(Cn2nnc(COC(=O)c3ccc(F)cc3)c2I)c(N)n1
-- reply 840

---

Documented inhibition across a set of compounds
Species on record: Sus scrofa
Experiment: Inhibition of porcine PDHc-E1 at 100 uM using MTT and phenazine methosulfate incubated for 3 mins relative to untreated control
Unit % implied. Number only.

Solved cases (5 shown):
{"Molecule": "Cc1ncc(Cn2cc(COC(=O)c3ccccc3Cl)nn2)c(N)n1", "Assay Result": 7.31}
{"Molecule": "Cc1ncc(Cn2cc(COC(=O)c3ccccc3)nn2)c(N)n1", "Assay Result": 15.9}
{"Molecule": "Cc1ncc(Cn2nnc(COC(=O)c3ccc([N+](=O)[O-])cc3)c2I)c(N)n1", "Assay Result": 10.4}
{"Molecule": "Cc1ncc(Cn2cc(COC(=O)c3ccc(F)cc3)nn2)c(N)n1", "Assay Result": 17.8}
{"Molecule": "Cc1ncc(Cn2nnc(COC(=O)c3ccccc3)c2I)c(N)n1", "Assay Result": 21}

-- ask Reported inhibition, compound Cc1ncc(Cn2cc(COC(=O)c3cccc(Cl)c3)nn2)c(N)n1 : ____
-- reply 9.62

-- ask Reported inhibition, compound Cc1ncc(Cn2nnc(COC(=O)c3ccc(F)cc3)c2I)c(N)n1 : ____
-- reply 15.3

-- ask Reported inhibition, compound Cc1ncc(Cn2cc(COC(=O)c3ccc([N+](=O)[O-])cc3)nn2)c(N)n1 : ____
-- reply 13.5

-- ask Reported inhibition, compound Cc1ncc(Cn2nnc(COC(=O)c3ccccc3Cl)c2I)c(N)n1 : ____
-- reply 9.5

-- ask Reported inhibition, compound Cc1ncc(Cn2nnc(COC(=O)c3cccc(Cl)c3)c2I)c(N)n1 : ____
-- reply 5.13
